Attribution: ChEMBL document CHEMBL4002629

- Test system: PANC-1
- experimental_details: Antiproliferative activity against human PANC1 cells after 48 hrs by MTT assay
- Assay type: functional, cell-based
- condition_description: PANC-1, 48 h
Kindly state pIC50 for each of the entries shown.
pIC50 is a log-scale quantity: -log10 of the concentration expressed in molar.

Lookup: Please provide the recorded pIC50 for COc1ccc(-c2c(Nc3ccc(F)cc3)c3ccc(O)cc3oc2=O)cc1 , tested on PANC-1.
Found: 4.12

Lookup: Continue with CCOc1ccc(Nc2c(-c3ccc(OC)cc3)c(=O)oc3ccccc23)cc1
Found: 4.48

Lookup: Repeat with COc1ccc(-c2c(Nc3cc(OC)c(OC)c(OC)c3)c3ccc(O)cc3oc2=O)cc1
Found: 4.19

Lookup: Field entry: COc1ccc2c(Nc3ccc(F)cc3)c(C(=O)C(F)(F)F)c(=O)oc2c1
Found: 4.91

Lookup: Continue with CCOc1ccc(Nc2c(-c3ccc(OC)cc3)c(=O)oc3cc(OC)ccc23)cc1
Found: 4.44

Lookup: Likewise for COc1ccc(Nc2c(-c3ccc(OC)cc3)c(=O)oc3cc(OC)ccc23)cc1 ?
Found: 4.39

Lookup: Another: COc1ccc(-c2c(Nc3ccc(C)c(O)c3)c3ccccc3oc2=O)cc1
Found: 5.01

Lookup: How about this compound: CCOc1ccc(Nc2c(-c3ccc(OC)cc3)c(=O)oc3cc(O)ccc23)cc1
Found: 4.36

Lookup: Proceed to COc1ccc2oc(=O)c(C(=O)C(F)(F)F)c(Nc3ccc(C)c(O)c3)c2c1
Found: 5.25

Lookup: Now consider COc1ccc(Nc2c(C(=O)C(F)(F)F)c(=O)oc3cc(OC)ccc23)cc1 and answer again.
Found: 4.32

Lookup: Proceed to COc1ccc2c(Nc3cc(OC)c(OC)c(OC)c3)c(C(=O)C(F)(F)F)c(=O)oc2c1
Found: 4.62

Lookup: Repeat with COc1ccc(-c2c(Nc3ccc(F)cc3)c3ccccc3oc2=O)cc1
Found: 4.49
